This collection of values is drawn from patent US10344026B2.

System: Ishikawa (K-Ras wild type cell line)
assay: Viability assay (CellTiterBlue, 72 hr) Ishikawa
Assay type: cell-based
condition.context: Homo sapiens, GI50, CellTiterBlue, Ishikawa K-Ras wild-type
pIC50: −log10 of the molar value.
Here the recorded pIC50 is given for each entry.

Please review the entries below; each comes with its answer.
Request: Can you share its pIC50? I mean this molecule: `Cc1nc(CN)sc1C(=O)Nc1nc(-c2ccc3c(c2)CCC(=O)N3)cs1`
Result: < 4.60

Request: Can you share its pIC50? I mean this molecule: `COCCN1C(=O)CCc2cc(-c3csc(NC(=O)c4c(C)nn(C(C)C)c4C)n3)ccc21`
Result: 5.40

Continuing:
Request: Can you share its pIC50? I mean this molecule: `Cc1nn(Cc2ccccc2)c(C)c1C(=O)Nc1nc(-c2ccc3c(c2)CCC(=O)N3)cs1`
Result: 5.15

Request: Can you share its pIC50? I mean this molecule: `Cc1nn(-c2ccccc2)cc1C(=O)Nc1nc(-c2ccc3c(c2)CCC(=O)N3)cs1`
Result: < 4.60

Request: Can you share its pIC50? I mean this molecule: `CCn1cc(C(=O)Nc2nc(-c3ccc4c(c3)CCC(=O)N4)cs2)c(C(F)(F)F)n1`
Result: < 4.60

Request: Can you share its pIC50? I mean this molecule: `Cc1cn(C)nc1C(=O)Nc1nc(-c2ccc3c(c2)CCC(=O)N3)cs1`
Result: < 4.60

Request: Can you share its pIC50? I mean this molecule: `CCn1nc(C2CC2)cc1C(=O)Nc1nc(-c2ccc3c(c2)CCC(=O)N3)cs1`
Result: < 4.60

Request: Can you share its pIC50? I mean this molecule: `CCc1cc(C(=O)Nc2nc(-c3ccc4c(c3)CCC(=O)N4)cs2)n(C)n1`
Result: < 4.60

Request: Can you share its pIC50? I mean this molecule: `COCCN1C(=O)CCc2cc(-c3csc(NC(=O)c4c(C)nn(C)c4C)n3)ccc21`
Result: 5.00

Request: Can you share its pIC50? I mean this molecule: `O=C1CCc2cc(-c3csc(NC(=O)c4ccnn4-c4ccccc4)n3)ccc2N1`
Result: < 4.60

Request: Can you share its pIC50? I mean this molecule: `CCc1nc(C)c(C(=O)Nc2nc(-c3ccc4c(c3)CCC(=O)N4)cs2)o1`
Result: < 4.60

Request: Can you share its pIC50? I mean this molecule: `Cn1cc(C(=O)Nc2nc(-c3ccc4c(c3)CCC(=O)N4)cs2)c(C(F)(F)F)n1`
Result: 4.74

====

measured.on: wild type K-Ras (Homo sapiens)
Construct: expressed in transfected cells; host or cells: 293H cells
Sequence (P01116 whole entry): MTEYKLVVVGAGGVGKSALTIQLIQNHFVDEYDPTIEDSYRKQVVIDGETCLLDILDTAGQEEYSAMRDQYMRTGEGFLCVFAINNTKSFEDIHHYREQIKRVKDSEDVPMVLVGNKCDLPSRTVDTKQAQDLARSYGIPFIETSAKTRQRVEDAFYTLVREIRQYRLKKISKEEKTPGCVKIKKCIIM
assay: G-LISA Ras activation, 293H cells transfected with Ras wild-type, EGF stimulated
Assay type: cell-based
condition.context: compound 1 hour, then 100 ng/ml EGF 2 minutes
Here the recorded IC50 is given for each entry.
Value expressed in µM; do not type the unit.

Please review the entries below; each comes with its answer.
Request: Can you share its IC50? I mean this molecule: Cc1nc(C2CCOC2)oc1C(=O)Nc1nc(-c2ccc3c(c2)CCC(=O)N3Cc2cccnc2)cs1 (centres unmarked)
Result: 23.4

Request: Can you share its IC50? I mean this molecule: `CCc1nc(C)c(C(=O)Nc2nc(-c3ccc4c(c3)CCC(=O)N4CCOC)cs2)o1`
Result: 6.8

Request: Can you share its IC50? I mean this molecule: Cc1nc(C)c(C(=O)Nc2nc(-c3ccc4c(c3)CCC(=O)N4CC3CCCN(C(=O)OC(C)(C)C)C3)cs2)o1 (centres unmarked)
Result: 16.7

Continuing:
Request: Can you share its IC50? I mean this molecule: `COCCN1C(=O)CCc2cc(-c3csc(NC(=O)c4oc(C(C)C)nc4C)n3)ccc21`
Result: 3.9

Request: Can you share its IC50? I mean this molecule: `Cc1nc(C2CCC2)oc1C(=O)Nc1nc(-c2ccc3c(c2)CCC(=O)N3)cs1`
Result: 15.5

Request: Can you share its IC50? I mean this molecule: Cc1nc(C2CCOC2)sc1C(=O)Nc1nc(-c2ccc3c(c2)CCC(=O)N3Cc2cccnc2)cs1 (centres unmarked)
Result: 19.9

Request: Can you share its IC50? I mean this molecule: `Cc1nn(C(C)C)cc1C(=O)Nc1nc(-c2ccc3c(c2)CCC(=O)N3Cc2cccnc2)cs1`
Result: 6.1

Request: Can you share its IC50? I mean this molecule: `CCc1cc(C(=O)Nc2nc(-c3ccc4c(c3)CCC(=O)N4)cs2)n(C)n1`
Result: 7.6

====

Here the recorded pEC50 is given for each entry.
Test system: phospho-Akt in HCC827 (Wild-type)
assay: In-Cell Western phospho-Akt, HCC827
Assay type: cell-based
condition.context: Homo sapiens, 1 h; HCC827, one hour treatment; read-out: In-Cell Western HCC827 (Wild-type) Akt (P)
pEC50: −log10 of the molar value.

Request: Can you share its pEC50? I mean this compound: `Cc1nn(-c2ccc(F)cc2)c(C)c1C(=O)Nc1nc(-c2ccc3c(c2)CCC(=O)N3)cs1`
Result: < 4.60

Request: Can you share its pEC50? I mean this compound: `Cn1cc(C(=O)Nc2nc(-c3ccc4c(c3)CCC(=O)N4)cs2)c(C(F)F)n1`
Result: < 4.60

Request: Can you share its pEC50? I mean this compound: `CCc1nn(C)cc1C(=O)Nc1nc(-c2ccc3c(c2)CCC(=O)N3)cs1`
Result: < 4.60

====

Here the recorded IC50 is given for each entry.
System: Panc10.05-G12D
assay: Viability assay (CellTiterBlue, 72 hr) Panc10.05
Type: cell-based
condition.context: Homo sapiens, Panc1005, GI50, CellTiterBlue, Panc10.05 K-Ras G12D, read-out: 72 hr Cell Viability Panc10.05 (G12D)

Request: Can you share its IC50? I mean this compound: CCCn1nc(C)c(C(=O)Nc2nc(-c3ccc4c(c3)CCC(=O)N4)cs2)c1C [Compound 55]
Result: > 25 µM

Continuing:
Request: Can you share its IC50? I mean this compound: Cn1ncc(C(=O)Nc2nc(-c3ccc4c(c3)CCC(=O)N4)cs2)c1C1CC1 [Compound 35]
Result: > 25 µM

Request: Can you share its IC50? I mean this compound: CCn1ncc(C(=O)Nc2nc(-c3ccc4c(c3)CCC(=O)N4)cs2)c1C1CC1 [Compound 33]
Result: > 25 µM

====

System: HCC827 (K-Ras wild type cell line)
assay: Viability assay (CellTiterBlue, 72 hr) HCC827
Format: cell-based
condition.context: Homo sapiens, GI50, CellTiterBlue, HCC827 K-Ras wild-type
Here the recorded log10 of IC50 is given for each entry.
Note: values are log10 of IC50 expressed in µM.

Please review the entries below; each comes with its answer.
Request: Can you share its log10 of IC50? I mean this compound: Cc1nc(C)c(C(=O)Nc2nc(-c3ccc4c(c3)CCC(=O)N4CC3CCCN(C(=O)OC(C)(C)C)C3)cs2)o1 (stereo not drawn)
Result: 0.30

Request: Can you share its log10 of IC50? I mean this compound: `Cc1cc(C(=O)Nc2nc(-c3ccc4c(c3)CCC(=O)N4)cs2)n(C)n1`
Result: 1.34

Request: Can you share its log10 of IC50? I mean this compound: `Cc1nn(Cc2ccccc2)c(C)c1C(=O)Nc1nc(-c2ccc3c(c2)CCC(=O)N3)cs1`
Result: 0.85

Request: Can you share its log10 of IC50? I mean this compound: `Cc1nn(C(C)C)c(C)c1C(=O)Nc1nc(-c2ccc3c(c2)CCC(=O)N3Cc2cccnc2)cs1`
Result: 0.60

Request: Can you share its log10 of IC50? I mean this compound: `CCn1nc(C)c(C(=O)Nc2nc(-c3ccc4c(c3)CCC(=O)N4)cs2)c1C`
Result: 0.78

Request: Can you share its log10 of IC50? I mean this compound: `Cc1nc(C2CCCCC2)oc1C(=O)Nc1nc(-c2ccc3c(c2)CCC(=O)N3)cs1`
Result: 1.32

Request: Can you share its log10 of IC50? I mean this compound: Cc1nc(C)c(C(=O)Nc2nc(-c3ccc4c(c3)CCC(=O)N4CC3CCOC3)cs2)o1 (stereo not drawn)
Result: 0.48

Request: Can you share its log10 of IC50? I mean this compound: `Cc1nn(-c2ccccc2)c(C)c1C(=O)Nc1nc(-c2ccc3c(c2)CCC(=O)N3)cs1`
Result: 1.00

Request: Can you share its log10 of IC50? I mean this compound: `Cc1nc(C)c(C(=O)Nc2nc(-c3ccc4c(c3)CCC(=O)N4Cc3ccc4ccccc4c3)cs2)o1`
Result: 0.85

In the following, a different compound is considered.
Request: Can you share its log10 of IC50? I mean this compound: Cc1nc(C)c(C(=O)Nc2nc(-c3ccc4c(c3)CCC(=O)N4CC3CCCOC3)cs2)o1 (stereo not drawn)
Result: 0.60
